We begin with IC50 values for UniProtKB Q13133, as collected from the published literature.

Compound | IC50
CC(C)c1nc2c(C#N)cccn2c1-c1cccc(Oc2cccc(CS(C)(=O)=O)c2)c1 | > 1000 nM
CC(C)N1C(=O)N(S(=O)(=O)c2ccccc2)CC1c1cccc(-c2cccc(S(C)(=O)=O)c2)c1 (stereo not shown) | 147 nM
CCc1nc2c(Cl)cccn2c1-c1cccc(COc2cccc(S(C)(=O)=O)c2)c1 | > 1000 nM
O=S(=O)(CCCO)c1cc(Cl)cc(Oc2cccc(-c3ncnc4c(C(F)(F)F)cccc34)c2)c1 | > 1000 nM
Cn1cc(C(=O)O)c2cc(NCc3cccc(-c4c(Cc5ccccc5)cnc5c(C(F)(F)F)cccc45)c3)ccc21 | 1820 nM
Cc1nc(-c2cc(Oc3cc(F)cc(S(C)(=O)=O)c3)ccc2Cl)c2cccc(C(F)(F)F)c2n1 | 1790 nM
Cc1cc(OCc2cncc(-c3c(Cc4ccccc4)cnc4c(C(F)(F)F)cccc34)c2)c(C)cc1CC(=O)O | 48 nM

###

We begin with IC50 values for Oxysterols receptor LXR-alpha (Homo sapiens, UniProt Q13133), as collected from the published literature.
Reported Metric: IC50 (nM)

Molecule | Qualifier Sign | Reported Result
CS(=O)(=O)c1cccc(-c2cccc([C@@H]3CN(S(=O)(=O)c4ccccc4)CC[C@H]3c3ccccc3)c2)c1 (racemic) | = | 70
CS(=O)(=O)c1cccc(-c2ccc(C3CN(S(=O)(=O)c4ccccc4)C(=O)N3c3ccccc3)cc2)c1 (stereo not drawn) | = | 1680
Cc1ccccc1N1CCN(C(=O)OC(C)(C)C)CC1c1cccc(-c2cccc(S(C)(=O)=O)c2)c1 (stereo not drawn) | = | 5530
Cc1nc2c(Cl)cccc2n1-c1cccc(Oc2cc(Cl)cc(S(C)(=O)=O)c2)c1 | = | 36
CS(=O)(=O)c1cccc(Oc2cccc(-c3cnc4cccc(C(F)(F)F)c4n3)c2)c1 | > | 1000
Cc1cc(Oc2cc(F)cc(S(C)(=O)=O)c2)ccc1-n1cnc2c(C(F)(F)F)cccc21 | = | 16000
CC(C)CN(Cc1ccnc(-c2cccc(S(C)(=O)=O)c2)c1)S(=O)(=O)c1ccccc1Cl | = | 7860
CCCS(=O)(=O)c1ccc(Oc2cccc(-c3ncnc4c(C(F)(F)F)cccc34)c2)cc1 | > | 1000
CCS(=O)(=O)c1cccc(Oc2cccc(-c3c(C(C)C)nc4c(C(F)(F)F)cccn34)c2)c1 | = | 221
CCS(=O)(=O)c1cccc(Oc2ccc(F)c(-c3ncnc4c(C(F)(F)F)cccc34)c2)c1 | = | 233
NC(=O)CCCCS(=O)(=O)c1cccc(Oc2ccc(F)c(-c3ncnc4c(C(F)(F)F)cccc34)c2)c1 | = | 1350
Cn1c(C(=O)O)cc2cc(NCc3cccc(-c4c(Cc5ccccc5)cnc5c(C(F)(F)F)cccc45)c3)ccc21 | = | 1530
Cc1cc(F)ccc1N1CCN(S(=O)(=O)c2cccc(Cl)c2)CC1C(=O)N1CCN(c2cc(Cl)ccc2Cl)CC1 (stereo not drawn) | = | 18000
O=C(O)c1c[nH]c2ccc(NCc3cccc(-c4c(Cc5ccccc5)cnc5c(C(F)(F)F)cccc45)c3)cc12 | = | 1240
Cc1nc2c(C(F)(F)F)cccc2nc1-c1cccc(Oc2cccc(S(C)(=O)=O)c2)c1 | = | 1020
